Value source: patent US20210379040A1

experiment: PK/PD profile, single oral dose; format: in vivo; settings: cynomolgus monkey, plasma; cynomolgus monkeys, oral 0.3 mg/kg; read-out: AUC0-24

# Smiles text, AUC(0-t) / ng·h/mL
rows = [
    ("Cn1cc(C(=O)O)c2ccc(N3CCC(OCc4c(-c5c(Cl)cccc5Cl)noc4C4CC4)CC3)cc21", 196),
]

* * *

experiment: PK/PD profile, single oral dose; format: in vivo; details: cynomolgus monkey, plasma; cynomolgus monkeys, oral 5 mg/kg; read-out: AUC0-24
Property: AUC(0-t) (ng·h/mL)

# Smiles text, Property, Experimental result
rows = [
    ("Cn1cc(C(=O)O)c2ccc(N3CCC(OCc4c(-c5c(Cl)cccc5Cl)noc4C4CC4)CC3)cc21", "AUC(0-t)", 2720),
]

* * *

test: PK/PD profile, single oral dose; assay type: in vivo; conditions: cynomolgus monkey, plasma; cynomolgus monkeys, oral 1 mg/kg; read-out: AUC0-24

# Compound, Result unit, AUC(0-t)
data = [
    ("Cn1cc(C(=O)O)c2ccc(N3CCC(OCc4c(-c5c(Cl)cccc5Cl)noc4C4CC4)CC3)cc21 [Compound 1]", "ng·h/mL", 1000),
]

* * *

molecular target: SSAO (Homo sapiens); assay: Biochemical activity, SSAO
Sequence (Q16853 whole entry): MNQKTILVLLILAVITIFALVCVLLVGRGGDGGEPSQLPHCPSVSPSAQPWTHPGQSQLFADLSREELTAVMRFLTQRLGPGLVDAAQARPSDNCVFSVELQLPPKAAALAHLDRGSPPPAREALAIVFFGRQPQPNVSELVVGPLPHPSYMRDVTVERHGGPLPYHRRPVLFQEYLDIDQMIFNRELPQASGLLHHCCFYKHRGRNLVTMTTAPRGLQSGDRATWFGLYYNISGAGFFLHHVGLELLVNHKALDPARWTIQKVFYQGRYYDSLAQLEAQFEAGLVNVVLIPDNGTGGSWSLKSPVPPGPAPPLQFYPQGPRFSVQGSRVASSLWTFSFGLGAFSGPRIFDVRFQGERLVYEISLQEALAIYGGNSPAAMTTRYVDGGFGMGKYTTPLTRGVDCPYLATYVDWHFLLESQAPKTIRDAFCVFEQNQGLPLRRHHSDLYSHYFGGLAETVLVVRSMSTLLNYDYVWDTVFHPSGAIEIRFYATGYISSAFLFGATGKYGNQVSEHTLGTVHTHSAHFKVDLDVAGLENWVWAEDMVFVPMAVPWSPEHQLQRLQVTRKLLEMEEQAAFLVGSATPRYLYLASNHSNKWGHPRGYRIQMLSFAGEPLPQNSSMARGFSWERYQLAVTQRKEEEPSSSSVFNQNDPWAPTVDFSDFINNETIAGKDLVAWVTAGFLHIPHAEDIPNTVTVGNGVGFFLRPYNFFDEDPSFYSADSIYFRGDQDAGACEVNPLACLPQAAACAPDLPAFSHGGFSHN

# Smiles text, Experimental target, Result unit, IC50
measured = [
    ("COC1CCN(c2ncc(OC/C(=C/F)CN)cn2)CC1", "SSAO (Homo sapiens)", "nM", 6.5),
]

* * *

Experiment: PK/PD profile, single oral dose
Type: in vivo
Conditions: cynomolgus monkey, plasma; cynomolgus monkeys, oral 5 mg/kg
Method: Pharmacokinetics data is presented in Table 3, and were determined by non-compartmental analysis.

# Smiles text, Cmax / ng/mL
measured = [
    ("Cn1cc(C(=O)O)c2ccc(N3CCC(OCc4c(-c5c(Cl)cccc5Cl)noc4C4CC4)CC3)cc21", 709),
]

* * *

experiment: PK/PD profile, 1 mg/kg oral for 7 consecutive days; format: in vivo; conditions: cynomolgus monkey, plasma, po, 1 mg/kg, cynomolgus monkeys, oral 1 mg/kg daily, Day 1

# Molecule, Cmax
data = [
    ("Cn1cc(C(=O)O)c2ccc(N3CCC(OCc4c(-c5c(Cl)cccc5Cl)noc4C4CC4)CC3)cc21 [Compound 1]", "257 ng/mL"),
]

* * *

test system: FXR-regulated gene expression in human HuH7 hepatoma cells; test: cells; settings: Huh-7, 11 h, read-out: EC50, BSEP Gene induction/HuH7
Property: EC50 (nM)

# Compound, Experimental target, Property, Experimental result
rows = [
    ("Cn1cc(C(=O)O)c2ccc(N3CCC(OCc4c(-c5c(Cl)cccc5Cl)noc4C4CC4)CC3)cc21", "FXR-regulated gene expression in human HuH7 hepatoma cells", "EC50", 40),
    ("CC[C@H]1[C@@H](O)[C@@H]2[C@H](CC[C@]3(C)[C@@H]([C@H](C)CCC(=O)O)CC[C@@H]23)[C@@]2(C)CC[C@@H](O)C[C@@H]12 [OCA, obeticholic acid, reference compound]", "FXR-regulated gene expression in human HuH7 hepatoma cells", "EC50", 200),
]

* * *

assay: Pharmacokinetics assay, rat; assay type: in vivo, Sprague-Dawley (SD) rats; details: plasma, iv; Sprague-Dawley Rat, intravenously 1 mg/kg; read-out: Vdss

# Molecule, Vd [L/kg]
records = [
    ("Cn1cc(C(=O)O)c2ccc(N3CCC(OCc4c(-c5c(Cl)cccc5Cl)noc4C4CC4)CC3)cc21 [Compound 1]", 1.31),
]
